- Tested on: herpes simplex virus, type 1 (strain HF)
- Measurement description: Antiviral activity (virus rating); […]
- Format: cell-based
- Assay conditions: Human alphaherpesvirus 1, HEp-2, strain HF, H.Ep. 2 cells; 50% inhibition of virus-induced cytopathogenic effects; read-out: MIC50, Herpes Simplex Type 1
Known EC50 of a selection of compounds
Metric name: EC50 (µg/mL)

Compound	Assay result
Nc1nc(N)c2nnn([C@@H]3C[C@H](CO)[C@@H](O)[C@H]3O)c2n1 (relative stereo)	100
CNc1nc(N)nc2c1ncn2[C@@H]1C[C@H](CO)[C@@H](O)[C@H]1O (relative stereo)	320
Nc1nc(N)c2ncn([C@@H]3C[C@H](CO)[C@@H](O)[C@H]3O)c2n1 (relative stereo)	0.32
Nc1nc(Cl)c2ncn([C@@H]3C[C@H](CO)[C@@H](O)[C@H]3O)c2n1 (relative stereo)	10
Nc1nc(Cl)c2nnn([C@@H]3C[C@H](CO)[C@@H](O)[C@H]3O)c2n1 (relative stereo)	81
